target_desc: LTA4-h hydrolase (Homo sapiens, UniProt P09960)
Construct: endogenous in cells
Sequence (P09960 whole entry): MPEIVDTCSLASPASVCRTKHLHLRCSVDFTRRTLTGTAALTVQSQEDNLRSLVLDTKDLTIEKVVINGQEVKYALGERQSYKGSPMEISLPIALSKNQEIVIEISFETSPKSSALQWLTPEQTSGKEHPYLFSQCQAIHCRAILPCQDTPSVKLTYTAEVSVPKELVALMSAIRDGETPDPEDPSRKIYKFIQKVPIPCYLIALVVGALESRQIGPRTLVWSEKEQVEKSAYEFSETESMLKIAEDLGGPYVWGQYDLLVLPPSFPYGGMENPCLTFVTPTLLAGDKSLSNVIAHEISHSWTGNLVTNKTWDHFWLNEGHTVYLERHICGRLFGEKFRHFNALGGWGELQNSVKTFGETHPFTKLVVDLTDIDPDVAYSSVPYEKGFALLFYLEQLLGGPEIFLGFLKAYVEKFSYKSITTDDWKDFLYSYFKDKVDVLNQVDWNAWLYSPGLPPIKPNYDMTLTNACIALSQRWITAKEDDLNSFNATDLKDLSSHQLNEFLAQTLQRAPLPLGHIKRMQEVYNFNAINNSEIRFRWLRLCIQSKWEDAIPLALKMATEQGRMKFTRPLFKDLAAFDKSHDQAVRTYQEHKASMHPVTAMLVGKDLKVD
assay_remarks: Whole blood assay (WBA)
Please provide measured IC50 for the entries that follow.

Solved entries (count: 4):
Clc1ccc(Oc2ccc(NC3CC4CCC(C3)N4)cc2)cc1 (centres unmarked)
1.9 µM
O=C(O)c1ccc(CN2CCC(CN(Cc3ccc(C(=O)O)cc3)c3ccc(Oc4ccc(Cl)cc4)cc3)C2)cc1 (centres unmarked)
> 3 µM
O=C(O)c1ccc(CN(CC2CNC2)c2ccc(Oc3ccc(Cl)cc3)cc2)cc1
1.6 µM
Clc1ccc(Oc2ccc(NCC3CNC3)cc2)cc1
0.09 µM

Look up and report measured IC50 (LTA4-h hydrolase (Homo sapiens, UniProt P09960)) for the following compound: CN1CCC(CN(Cc2ccc(F)cc2)c2ccc(Oc3ccc(Cl)cc3)cc2)C1 (centres unmarked)
0.95 µM

Data origin, for the record: patent US10501455B2
